- SYSTEM_TESTED: BRD4 (BD1) (Homo sapiens)
- Construct: His; made in house
- METHOD_DESCRIPTION: BRD4 AlphaLisa binding assay
pIC50: −log10 of the molar value.
What pIC50 was measured for each of the following?

Cc1nnc2n1-c1ccccc1N(c1ccc(Cl)cc1)CC2: 6.00 to 7.00

Dear reader, for each entry below, please note its pIC50.
1. Cc1nnc2n1-c1ccccc1N(c1ccc(Cl)cc1)CC2C (stereo not shown)
2. CCC1CN(c2ccc(Cl)cc2)c2ccccc2-n2c(C)nnc21 (stereo not shown)

[A]
1. 6.00 to 7.00
2. 5.00 to 6.00

Query Cc1nnc2n1-c1ccccc1N(c1ccc(Cl)cc1)CC2(C)C yields pIC50 of 6.00 to 7.00

Data credit: patent US9422292B2
